- system under test: Telomerase reverse transcriptase (Homo sapiens)
- Sequence (O14746 whole entry): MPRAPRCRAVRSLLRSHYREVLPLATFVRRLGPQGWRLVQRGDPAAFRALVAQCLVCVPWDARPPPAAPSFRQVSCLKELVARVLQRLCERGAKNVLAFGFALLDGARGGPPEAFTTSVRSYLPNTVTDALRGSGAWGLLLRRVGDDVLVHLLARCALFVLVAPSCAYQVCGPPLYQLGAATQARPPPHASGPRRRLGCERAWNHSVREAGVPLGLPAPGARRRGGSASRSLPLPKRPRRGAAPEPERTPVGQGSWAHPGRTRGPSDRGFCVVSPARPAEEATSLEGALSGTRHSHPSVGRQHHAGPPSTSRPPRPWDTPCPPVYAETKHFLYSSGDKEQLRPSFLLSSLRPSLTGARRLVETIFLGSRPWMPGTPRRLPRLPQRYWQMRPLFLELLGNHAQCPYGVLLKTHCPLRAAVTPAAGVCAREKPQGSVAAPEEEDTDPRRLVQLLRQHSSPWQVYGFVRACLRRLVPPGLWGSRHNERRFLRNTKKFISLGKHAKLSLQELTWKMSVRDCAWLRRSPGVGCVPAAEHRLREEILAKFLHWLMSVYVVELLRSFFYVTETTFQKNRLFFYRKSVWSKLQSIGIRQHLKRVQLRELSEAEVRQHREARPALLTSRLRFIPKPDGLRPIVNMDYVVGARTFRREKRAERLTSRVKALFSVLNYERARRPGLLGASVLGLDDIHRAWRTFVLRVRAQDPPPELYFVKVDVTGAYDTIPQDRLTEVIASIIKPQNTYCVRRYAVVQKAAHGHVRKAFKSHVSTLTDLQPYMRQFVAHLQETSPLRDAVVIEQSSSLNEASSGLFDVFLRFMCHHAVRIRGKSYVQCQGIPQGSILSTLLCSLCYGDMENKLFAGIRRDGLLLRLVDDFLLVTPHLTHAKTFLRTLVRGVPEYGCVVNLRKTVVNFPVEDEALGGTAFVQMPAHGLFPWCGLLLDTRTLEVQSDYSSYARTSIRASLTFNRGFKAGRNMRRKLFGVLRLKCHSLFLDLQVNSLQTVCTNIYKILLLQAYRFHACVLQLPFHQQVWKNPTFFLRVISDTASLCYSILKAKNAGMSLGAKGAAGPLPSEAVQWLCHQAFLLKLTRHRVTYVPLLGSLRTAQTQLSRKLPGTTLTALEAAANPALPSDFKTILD
- protocol notes: Inhibitory activity against human telomerase
Consider the following compounds; for each one, report its pEC50.
Give bare numbers, as −log10 of the molar value.

Example entries and their recorded answers appear below.
Requested field: pEC50. Item: Nc1cccc(Nc2c3ccc(NC(=O)CCN4CCCC4)cc3nc3cc(NC(=O)CCN4CCCC4)ccc23)c1 7.22

Requested field: pEC50. Item: COc1ccc(Nc2c3cc(NC(=O)CCN4CCCC4)ccc3nc3ccc(NC(=O)CCN4CCCC4)cc23)cc1 6.34

Requested field: pEC50. Item: COCCNc1c2ccc(NC(=O)CCN3CCCC3)cc2nc2cc(NC(=O)CCN3CCCC3)ccc12 6.85

Requested field: pEC50. Item: CN(C)c1ccc(Nc2c3ccc(NC(=O)CCN4CCCC4)cc3nc3cc(NC(=O)CCN4CCCC4)ccc23)cc1 6.94

Requested field: pEC50. Item: CN1CCCC1CCNc1c2ccc(NC(=O)CCN3CCCC3)cc2nc2cc(NC(=O)CCN3CCCC3)ccc12 (stereo unspecified) 7.74

Here are 6 compounds. What values of pEC50 were reported for them?
1. CC(=O)c1ccc(Nc2c3ccc(NC(=O)CCN4CCCC4)cc3nc3cc(NC(=O)CCN4CCCC4)ccc23)cc1
2. O=C(CCN1CCCC1)Nc1ccc2c(Nc3ccc(F)cc3)c3ccc(NC(=O)CCN4CCCC4)cc3nc2c1
3. CN(C)c1cccc(Nc2c3ccc(NC(=O)CCN4CCCC4)cc3nc3cc(NC(=O)CCN4CCCC4)ccc23)c1
4. O=C(CCN1CCCC1)Nc1ccc2c(NCc3cccnc3)c3ccc(NC(=O)CCN4CCCC4)cc3nc2c1
5. O=C(CCN1CCCC1)Nc1ccc2c(NC3CCCCCC3)c3ccc(NC(=O)CCN4CCCC4)cc3nc2c1
6. O=C(CCN1CCCC1)Nc1ccc2nc3ccc(NC(=O)CCN4CCCC4)cc3c(Nc3ccccc3O)c2c1

[7.40, 7.15, 7.00, 7.18, 6.68, 5.99]
